# TARGET UNDER TEST: T1, Bcl-w, Q92843
# T1 chain: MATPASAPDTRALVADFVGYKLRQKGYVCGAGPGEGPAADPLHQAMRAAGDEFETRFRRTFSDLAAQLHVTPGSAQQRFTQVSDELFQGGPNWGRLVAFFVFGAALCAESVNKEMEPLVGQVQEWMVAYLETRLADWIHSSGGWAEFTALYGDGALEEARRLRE
# PROTOCOL NOTES: peptide SPOT array, c-Myc-tagged receptor at 1 uM or 100 nM, anti-c-Myc-Cy3
Reported SPOT signal as a fraction of Bim BH3's signal on the same receptor and array values follow for various binders
REPORTED PROPERTY: SPOT signal as a fraction of Bim BH3's signal on the same receptor and array

binder="CQGDTVISECLQRFADSLQEVVNYHM [ACAP3]" experimental_value=0.02
binder="VDVIDDHERGLIRNGRDFLLALERQG [DEDD]" experimental_value=0.02
binder="ELLRLRQHWKLRKVGDKILGDLSYRS [MED17]" experimental_value=1.03
binder="SSTMGQVGRQLAIIGDDINRRYDSEF [BAK1]" experimental_value=0.72
binder="NMSNYSSSSLLSGAGKDSLVEHDEEF [KIAA0367]" experimental_value=0.02
binder="AYRGRGIAKHLAKAALDFVVEEDLKA [C17orf103]" experimental_value=0.29
binder="FQQLRHRIQDLEQLAKEQDKESEKQL [BNIP1]" experimental_value=0.04
binder="EVKQSMSSQSLDKAAEDMPEAEQDLE [APBA1]" experimental_value=0.02
binder="NATHEEVVHLLRNAGDEVTITVEYLR [SNTG2]" experimental_value=0.02
binder="EQKLKQHVENLNQVAEKLEEKHSQIT [CCDC68]" experimental_value=0.02
binder="VAGYRESAAFLLRSADELENLILQQN [NOL4]" experimental_value=0.03
binder="YTCRGHIPGFLQTTADEFCFYYARKD [HHIP]" experimental_value=0.1
binder="NRKGEKNGKGLRHFSMKVCEKVQRKG [TFDP1]" experimental_value=0.91
binder="AEHEDDLPENLSEIADLWNSPTRTHG [CDH23]" experimental_value=0.02
binder="EEIIHKLAMQDRHIGDNIDHRMVRED [PXT1]" experimental_value=0.02
binder="AIPRAEVAELLVHSGDFLVRESQGKQ [FES]" experimental_value=0.02
binder="TCLNRGFSRLLDNMAEFFRPTEQDLQ [PEX3]" experimental_value=0.03
binder="GVAASDFIRSLDHCGDLALEGVFSHK [NLRC4]" experimental_value=0.02
binder="PVGYLVESGRLSVMGCDVLKAVSDYF [MFI2]" experimental_value=0.02
binder="IKKSVTKGEMLKIVGKRFREHFPEIL [MAGEB2]" experimental_value=0.59
binder="KEVEDCVPVFLKHIAHDIYVCGKTIN [TUBGCP6]" experimental_value=0.02
binder="SQRGTDFSVLLSSAGDSFSQFRFAEE [AVEN]" experimental_value=0.07
binder="ASEASLFEEALEKYGKDFNDIRQDFL [MTA3]" experimental_value=0.02
binder="LFRRRDISSSLNSLADSNAREFEEES [MTA2]" experimental_value=0.04
binder="KGKIDVCIVLLQHGADPNIRNTDGKS [TNKS]" experimental_value=0.03
binder="DATHDEAVQALKRAGKEVLLEVKYMR [SNTB1]" experimental_value=0.02
binder="TRELQELARKLQELADASENLLTENT [TXNDC11]" experimental_value=0.27
binder="KRALIQCAKDIAKASDEVTRLAKEVA [VCL]" experimental_value=0.15
